Entries below carry reported IC50 on Proto-oncogene tyrosine-protein kinase Src (Homo sapiens).
Sequence (P12931 2-536 limits assumed): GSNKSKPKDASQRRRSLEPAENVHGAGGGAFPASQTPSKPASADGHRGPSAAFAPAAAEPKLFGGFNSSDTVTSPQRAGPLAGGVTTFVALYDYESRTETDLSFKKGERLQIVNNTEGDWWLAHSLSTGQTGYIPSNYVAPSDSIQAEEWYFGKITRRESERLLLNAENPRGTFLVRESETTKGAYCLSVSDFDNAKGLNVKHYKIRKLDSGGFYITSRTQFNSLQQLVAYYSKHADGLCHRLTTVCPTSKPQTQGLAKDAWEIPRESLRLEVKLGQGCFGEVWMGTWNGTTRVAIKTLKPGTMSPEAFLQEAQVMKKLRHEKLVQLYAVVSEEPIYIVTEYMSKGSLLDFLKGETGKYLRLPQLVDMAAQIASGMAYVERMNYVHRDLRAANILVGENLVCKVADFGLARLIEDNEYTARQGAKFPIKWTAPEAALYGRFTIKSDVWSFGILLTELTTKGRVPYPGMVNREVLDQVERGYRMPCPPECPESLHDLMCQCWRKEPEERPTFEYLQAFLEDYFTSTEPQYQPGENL
Quantity Name: IC50 (µM)

Chemical Smiles | Quantity Name | Endpoint Result
O=C(NNC(=O)c1ccc(C(F)(F)F)cc1)C(=O)c1c[nH]c2ccccc12 | IC50 | 1.3
Cc1nc(-c2ccc(C(=O)NNC(=O)C(=O)c3c[nH]c4ccccc34)cc2)no1 | IC50 | 22
Cc1cncc(Oc2ccc(C(=O)NNC(=O)C(=O)c3c[nH]c4ccccc34)cc2)n1 | IC50 | 40
O=C(NNC(=O)c1ccc(-c2cccc(COc3cccc(C(F)(F)F)c3)c2)cc1)C(=O)c1c[nH]c2ccccc12 | IC50 | 0.72

* * *

Entries below carry reported IC50 on UniProtKB P08069.
Sequence (P08069 31-736 limits assumed): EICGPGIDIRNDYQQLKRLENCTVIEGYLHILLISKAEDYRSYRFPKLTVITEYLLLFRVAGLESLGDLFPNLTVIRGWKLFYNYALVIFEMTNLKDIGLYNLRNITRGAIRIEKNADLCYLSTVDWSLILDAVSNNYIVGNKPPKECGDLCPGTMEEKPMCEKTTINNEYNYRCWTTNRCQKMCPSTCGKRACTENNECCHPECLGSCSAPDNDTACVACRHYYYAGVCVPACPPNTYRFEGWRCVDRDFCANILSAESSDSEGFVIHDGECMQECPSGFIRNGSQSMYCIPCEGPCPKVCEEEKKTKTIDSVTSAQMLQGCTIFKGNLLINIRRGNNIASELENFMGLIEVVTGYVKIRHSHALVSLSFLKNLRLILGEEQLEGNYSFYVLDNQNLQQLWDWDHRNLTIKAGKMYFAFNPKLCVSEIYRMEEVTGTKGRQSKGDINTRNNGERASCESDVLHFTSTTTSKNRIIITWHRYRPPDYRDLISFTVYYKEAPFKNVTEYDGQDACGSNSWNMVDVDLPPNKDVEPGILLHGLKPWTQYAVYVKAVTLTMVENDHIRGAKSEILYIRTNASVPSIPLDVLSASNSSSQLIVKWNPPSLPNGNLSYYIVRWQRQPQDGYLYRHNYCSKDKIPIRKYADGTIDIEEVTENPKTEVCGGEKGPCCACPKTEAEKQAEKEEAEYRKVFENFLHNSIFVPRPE
Sequence (P08069 741-1367 limits assumed): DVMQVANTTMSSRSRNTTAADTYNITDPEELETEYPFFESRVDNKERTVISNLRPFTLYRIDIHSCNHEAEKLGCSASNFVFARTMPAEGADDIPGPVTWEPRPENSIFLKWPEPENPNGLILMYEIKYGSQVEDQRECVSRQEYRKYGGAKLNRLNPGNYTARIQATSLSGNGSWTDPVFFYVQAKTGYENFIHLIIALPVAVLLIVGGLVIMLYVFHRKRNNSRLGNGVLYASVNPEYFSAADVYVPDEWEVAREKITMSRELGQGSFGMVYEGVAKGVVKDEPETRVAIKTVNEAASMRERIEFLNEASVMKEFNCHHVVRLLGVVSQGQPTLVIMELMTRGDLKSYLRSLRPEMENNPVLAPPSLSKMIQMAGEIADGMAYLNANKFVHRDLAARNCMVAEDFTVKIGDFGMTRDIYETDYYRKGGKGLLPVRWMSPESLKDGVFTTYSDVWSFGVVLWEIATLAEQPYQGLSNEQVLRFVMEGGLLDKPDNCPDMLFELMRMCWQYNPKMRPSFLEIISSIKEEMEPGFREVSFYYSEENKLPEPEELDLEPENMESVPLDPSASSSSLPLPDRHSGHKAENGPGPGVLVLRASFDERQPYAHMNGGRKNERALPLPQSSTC

Chemical Smiles | IC50
COc1ccc(C(=O)NNC(=O)C(=O)c2c[nH]c3ccccc23)cc1 | 54 µM
O=C(NNC(=O)c1ccc(-c2ccccc2OCc2ccc(F)cc2)cc1)C(=O)c1c[nH]c2ccccc12 | 4.9 µM
O=C(NNc1ccc(Cl)cc1)C(=O)c1c[nH]c2ccccc12 | > 100 µM
O=C(NCc1ccccc1)C(=O)c1c[nH]c2ccccc12 | > 100 µM
Cc1ccc(C)n1-c1ccc(C(=O)NNC(=O)C(=O)c2c[nH]c3ccccc23)cc1 | 4.9 µM
Cc1cc(C(C)(C)C)ccc1OCc1cccc(-c2ccc(C(=O)NNC(=O)C(=O)c3c[nH]c4ccccc34)cc2)c1 | 0.67 µM
CC(C)(C)c1ccc(C(=O)NNC(=O)C(=O)c2c[nH]c3ccccc23)cc1 | 4.4 µM
O=C(NNC(=O)c1ccc(I)cc1)C(=O)c1c[nH]c2ccccc12 | 4 µM
O=C(NCCc1cccc(Cl)c1)C(=O)c1c[nH]c2ccccc12 | > 100 µM
Cc1cncc(Oc2ccc(C(=O)NNC(=O)C(=O)c3c[nH]c4ccccc34)cc2)n1 | 31 µM
O=C(NNC(=O)c1ccc(-c2cccc(COc3cccc(C(F)(F)F)c3)c2)cc1)C(=O)c1c[nH]c2ccccc12 | 0.99 µM
COCCc1ccc(OCc2cccc(-c3ccc(C(=O)NNC(=O)C(=O)c4c[nH]c5ccccc45)cc3)c2)cc1 | 0.68 µM
O=C(NCCc1ccc(Cl)cc1)C(=O)c1c[nH]c2ccccc12 | > 100 µM
O=C(NNc1ccc(Br)cc1)C(=O)c1c[nH]c2ccccc12 | > 100 µM
O=C(NNC(=O)c1ccc(-c2ccccc2COc2cccc(C(F)(F)F)c2)cc1)C(=O)c1c[nH]c2ccccc12 | 0.81 µM
Cc1ccc(C(=O)NNC(=O)C(=O)c2c[nH]c3ccccc23)cc1 | 82 µM
Cc1nc(-c2ccc(C(=O)NNC(=O)C(=O)c3c[nH]c4ccccc34)cc2)no1 | 12 µM

* * *

Each record here notes measured IC50.
Target: Hepatocyte growth factor receptor (Homo sapiens, UniProt P08581)
Sequence (P08581 whole entry): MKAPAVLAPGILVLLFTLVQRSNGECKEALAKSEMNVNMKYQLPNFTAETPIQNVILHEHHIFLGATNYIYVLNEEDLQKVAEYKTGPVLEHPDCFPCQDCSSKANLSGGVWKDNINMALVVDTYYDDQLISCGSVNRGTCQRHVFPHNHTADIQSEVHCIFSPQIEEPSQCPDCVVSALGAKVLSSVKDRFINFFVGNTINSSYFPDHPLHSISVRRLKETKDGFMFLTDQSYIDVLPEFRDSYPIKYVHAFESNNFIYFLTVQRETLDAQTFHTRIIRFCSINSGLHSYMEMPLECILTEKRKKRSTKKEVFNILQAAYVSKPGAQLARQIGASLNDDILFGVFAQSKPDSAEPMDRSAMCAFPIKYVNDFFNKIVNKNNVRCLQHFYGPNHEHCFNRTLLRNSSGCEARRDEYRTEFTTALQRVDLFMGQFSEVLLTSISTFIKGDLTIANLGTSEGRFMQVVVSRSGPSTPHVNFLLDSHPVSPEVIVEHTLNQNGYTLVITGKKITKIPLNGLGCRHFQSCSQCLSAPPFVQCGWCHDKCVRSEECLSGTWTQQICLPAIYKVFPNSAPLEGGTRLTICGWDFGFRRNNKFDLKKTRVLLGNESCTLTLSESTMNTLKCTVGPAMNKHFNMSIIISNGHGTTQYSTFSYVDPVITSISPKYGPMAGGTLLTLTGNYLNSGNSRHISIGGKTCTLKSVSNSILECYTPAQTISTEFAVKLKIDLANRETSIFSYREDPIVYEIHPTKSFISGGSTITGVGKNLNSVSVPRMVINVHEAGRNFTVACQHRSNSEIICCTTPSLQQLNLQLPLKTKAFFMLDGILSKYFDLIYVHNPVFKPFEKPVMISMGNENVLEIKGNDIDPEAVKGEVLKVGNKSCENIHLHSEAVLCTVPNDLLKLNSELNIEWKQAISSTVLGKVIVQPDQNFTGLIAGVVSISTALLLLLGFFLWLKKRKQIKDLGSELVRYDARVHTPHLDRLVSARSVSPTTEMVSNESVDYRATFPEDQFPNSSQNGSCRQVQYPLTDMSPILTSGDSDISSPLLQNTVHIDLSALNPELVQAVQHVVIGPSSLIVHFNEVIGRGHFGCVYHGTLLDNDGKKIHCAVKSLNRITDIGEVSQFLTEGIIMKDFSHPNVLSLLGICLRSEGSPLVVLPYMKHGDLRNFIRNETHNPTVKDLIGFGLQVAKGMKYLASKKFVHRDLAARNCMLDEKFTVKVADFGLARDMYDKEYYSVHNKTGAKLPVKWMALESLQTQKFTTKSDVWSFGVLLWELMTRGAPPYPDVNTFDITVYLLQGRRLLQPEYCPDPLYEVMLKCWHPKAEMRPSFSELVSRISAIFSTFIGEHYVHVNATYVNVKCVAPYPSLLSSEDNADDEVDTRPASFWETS
Assay Procedure: Inhibition of c-MET assessed as incorporation of p33 using [gammaP33]-ATP by microplate scintillation counting
Quantity Name: IC50 (µM)

Chemical Smiles | Target | Quantity Name | Prefix Operator | Endpoint Result
O=C(NNC(=O)c1ccccc1)C(=O)c1c[nH]c2ccccc12 | Hepatocyte growth factor receptor (Homo sapiens, UniProt P08581) | IC50 | > | 100
CS(=O)(=O)NCc1cccc(-c2ccc(C(=O)NNC(=O)C(=O)c3c[nH]c4ccccc34)cc2)c1 | Hepatocyte growth factor receptor (Homo sapiens, UniProt P08581) | IC50 | = | 27
O=C(NNC(=O)c1ccc(-c2ccccc2OCc2ccc(F)cc2)cc1)C(=O)c1c[nH]c2ccccc12 | Hepatocyte growth factor receptor (Homo sapiens, UniProt P08581) | IC50 | = | 13
O=C(NCCc1cccc(Cl)c1)C(=O)c1c[nH]c2ccccc12 | Hepatocyte growth factor receptor (Homo sapiens, UniProt P08581) | IC50 | > | 100
Cc1cc(C(C)(C)C)ccc1OCc1cccc(-c2ccc(C(=O)NNC(=O)C(=O)c3c[nH]c4ccccc34)cc2)c1 | Hepatocyte growth factor receptor (Homo sapiens, UniProt P08581) | IC50 | = | 4.1
Cc1ccc(CNC(=O)C(=O)c2c[nH]c3ccccc23)cc1 | Hepatocyte growth factor receptor (Homo sapiens, UniProt P08581) | IC50 | > | 100
O=C(NNc1ccc(Br)cc1)C(=O)c1c[nH]c2ccccc12 | Hepatocyte growth factor receptor (Homo sapiens, UniProt P08581) | IC50 | > | 100
COc1ccc(C(=O)NNC(=O)C(=O)c2c[nH]c3ccccc23)cc1 | Hepatocyte growth factor receptor (Homo sapiens, UniProt P08581) | IC50 | = | 96
O=C(NNC(=O)c1ccc(-c2cccc(COc3cccc(C(F)(F)F)c3)c2)cc1)C(=O)c1c[nH]c2ccccc12 | Hepatocyte growth factor receptor (Homo sapiens, UniProt P08581) | IC50 | = | 7.6
Cc1ccc(C)n1-c1ccc(C(=O)NNC(=O)C(=O)c2c[nH]c3ccccc23)cc1 | Hepatocyte growth factor receptor (Homo sapiens, UniProt P08581) | IC50 | = | 16
O=C(NNC(=O)c1ccc(C(F)(F)F)cc1)C(=O)c1c[nH]c2ccccc12 | Hepatocyte growth factor receptor (Homo sapiens, UniProt P08581) | IC50 | = | 49
Cc1cncc(Oc2ccc(C(=O)NNC(=O)C(=O)c3c[nH]c4ccccc34)cc2)n1 | Hepatocyte growth factor receptor (Homo sapiens, UniProt P08581) | IC50 | > | 100
O=C(NCCc1ccc(Cl)cc1)C(=O)c1c[nH]c2ccccc12 | Hepatocyte growth factor receptor (Homo sapiens, UniProt P08581) | IC50 | > | 100
O=C(NNc1ccccc1)C(=O)c1c[nH]c2ccccc12 | Hepatocyte growth factor receptor (Homo sapiens, UniProt P08581) | IC50 | > | 100
O=C(NNC(=O)c1ccc(I)cc1)C(=O)c1c[nH]c2ccccc12 | Hepatocyte growth factor receptor (Homo sapiens, UniProt P08581) | IC50 | = | 14
O=C(NCc1cccc(Cl)c1)C(=O)c1c[nH]c2ccccc12 | Hepatocyte growth factor receptor (Homo sapiens, UniProt P08581) | IC50 | > | 100
